Source of measurements: PubChem BioAssay (NCI)

Tested on: EKVX NSCLC
Test Protocol: NCI tumour cell line growth inhibition, 48 h
Readout Label: TGI (µM)
Just the number in µM, nothing appended.

Retrieve TGI measured for CCOc1ccc(NCC2CC/C(=C\c3ccc(O)cc3)C2=O)cc1 (configuration not stated) and print it.
39.5

Retrieve TGI measured for CCN(CC)c1ccc(C(=N)c2ccc(N(C)C)cc2)cc1 and print it.
16.5

Retrieve TGI measured for Cc1cc2nc(-c3c(F)cccc3F)n(Cc3c(F)cccc3F)c2cc1C and print it.
22.7

Retrieve TGI measured for CCCCOCCOC1=CC(=O)c2c(O)ccc(O)c2C1=O and print it.
3.08

Retrieve TGI measured for C/C=C/[C@@H]1OC(=O)C2=C[C@@H](O)[C@@H](/C=C/C)O[C@H]21 and print it.
21.2

Retrieve TGI measured for COc1cc(C2C3=C(COC3=O)Nc3cc4c(cc32)CCC4)cc2c1OCO2 (configuration not stated) and print it.
43.3

---

System: SNB-19 CNS
Test Protocol: NCI tumour cell line growth inhibition, 48 h
Recorded measurements of TGI, one per entry

Guide cases for TGI, answers given:
Compound	TGI
COc1ccc(-c2nn(-c3cccc(Cl)c3)cc2-c2cc(-c3ccccc3)nc(N)n2)cc1	43.8 µM
COc1cccc2nc3cc(C)c(C)cc3nc12	> 100 µM
O=C(CN1CCN(c2ccccc2)CC1)N1CCN(c2nnc(-c3ccc(Cl)cc3)c(-c3ccc(Cl)cc3)n2)CC1	> 100 µM

Switching to the query record.
Retrieve TGI measured for CC(=O)NC1CC2Oc3ccc(C)cc3C(C)(O2)C1O (centres undefined) and print it.
> 100 µM

---

Recorded measurements of TGI, one per entry
System: SK-MEL-28 melanoma
Test Protocol: NCI tumour cell line growth inhibition, 48 h

Guide cases for TGI, answers given:
Compound	Result
CC(C)C/C=C/C1=NN(c2cccc(S(=O)(=O)O)c2)C2(C1)SCC(=O)N2c1nc2ccccc2s1 (stereo unspecified)	> 100 µM
O=C1c2ccccc2CC1C1(O)C(=O)Nc2ccccc21 (stereo unspecified)	> 100 µM
Cn1cnc(N2CCCC2)c(C#N)c1=O	> 100 µM

Retrieve TGI measured for CCSc1nc(=[N+]2CCCC2)ss1 and print it.
> 100 µM

Retrieve TGI measured for O=c1oc2c(ccc3ccccc32)cc1C1=CSC2=NCCN12 and print it.
> 100 µM

Retrieve TGI measured for CCOP(=O)(CN=C(c1ccccc1)c1ccccc1)OCC and print it.
> 100 µM

Retrieve TGI measured for Cc1cn2c(/C=N/Nc3ccccn3)c(-c3ccc(Cl)c([N+](=O)[O-])c3)nc2s1 and print it.
> 50 µM

Retrieve TGI measured for NC(=O)NC(=O)c1cccc(NC(=O)CF)c1 and print it.
> 100 µM

Retrieve TGI measured for CCCCCCCOc1c(OC)cc(C2CC(=O)Nc3c2c(C)nn3-c2nc3ccccc3[nH]2)cc1OC (stereo unspecified) and print it.
8.61 µM

Retrieve TGI measured for CC(C)C1COC(c2cccc(C3=N[C@@H](C(C)C)CO3)n2)=N1 (stereo partly specified) and print it.
> 100 µM

Retrieve TGI measured for CCCOC(=O)CCn1c(SC)nc2[nH]cc(-c3ccccc3)c2c1=O and print it.
58.8 µM

---

Test system: NCI-H522 lung
Test Protocol: NCI tumour cell line growth inhibition, 48 h
*1 amine or outer side, *2 acyl side, *3 side chain or, on linkers, in order; H or OH if unused. Where a SMILES comes first, the peptide text is derived from it. [ ]: non-standard residue; d: D form. X33 = C=CCC(O[*:1])C(=O)[*:2]; NMeV = CN[CH](C(=O)O)C(C)C; NMeA = CN[CH](C)C(=O)O; βAla = NCCC(=O)O
Readout Label: TGI

Guide cases for TGI, answers given:
Molecule	TGI
O=C(/C=C/c1ccccc1)CSc1nc2ccc(I)cc2c(=O)n1Cc1ccccc1	> 89.5 µM
Nc1cc(N)c2nc(-c3ccccc3)c(NCc3ccc(F)cc3)nc2c1	> 100 µM
C=CCC(OCCOCC)c1cc(OCCOCC)ccc1OC (centres undefined)	> 100 µM
Cc1ccc2c(c1)-c1c(C#N)c(N)nc(-c3ccccc3)c1CCS2(=O)=O	4.58 µM
Nc1ncnc2c1cnn2Cc1cn(COCC(O)CO)nn1 (centres undefined)	30.8 µM

Retrieve TGI measured for CN(CCCN(C)CCc1ccc(Cl)c(Cl)c1)CCCN1CCCC1 and print it.
3.51 µM

Retrieve TGI measured for C=CCCCC1CCCNC1=S (centres undefined) and print it.
> 100 µM

Retrieve TGI measured for C=CCC1OC(=O)CCNC(=O)C(C)N(C)C(=O)C(C(C)C)N(C)C(=O)C(C(C)CC)NC(=O)C2CCCN2C1=O (centres undefined) (cyclo([X33]PI[NMeV][NMeA][βAla]); configuration not given here) and print it.
> 100 µM

Retrieve TGI measured for CC(=O)NC1CC2Oc3ccc(C)cc3C(C)(O2)C1O (centres undefined) and print it.
> 100 µM

Retrieve TGI measured for CC(C)C[C@H](NC(=O)[C@@H](O)[C@H](N)Cc1ccc([N+](=O)[O-])cc1)C(=O)O and print it.
> 25 µM

---

Tested on: K-562 leukemia
Test Protocol: NCI tumour cell line growth inhibition, 48 h; in the data active = GI50 below about 0.43 µM; inactive = the rest
# valid calls are active, inactive; nothing else

Name the outcome recorded for CC(C)c1ccc(Nc2nccc(-c3cnn4ncccc34)n2)cc1 in the assay.
inactive

Name the outcome recorded for Nc1n[nH]c2ccc([C@@H]3Nc4ccc5[nH]ncc5c4[C@H]4C5C=CC(C5)[C@@H]34)cc12 (stereo not given in full) in the assay.
active

Name the outcome recorded for CCN(CC)c1ccc(C(=N)c2ccc(N(C)C)cc2)cc1 in the assay.
active

Name the outcome recorded for CCCCCCCOc1c(OC)cc(C2CC(=O)Nc3c2c(C)nn3-c2nc3ccccc3[nH]2)cc1OC (stereo not given) in the assay.
inactive

Name the outcome recorded for Cc1cn2c(/C=N/Nc3ccccn3)c(-c3ccc(Cl)c([N+](=O)[O-])c3)nc2s1 in the assay.
inactive

Name the outcome recorded for CC(C)(C#N)c1cc(C(=O)Nc2cc(Nc3ncccc3-c3ncnc4nc[nH]c34)ccc2F)cc(C(F)(F)F)c1 in the assay.
active

Name the outcome recorded for Cc1c(Cl)cccc1NC1=C(Cl)C(=O)N(Cc2ccccc2)C1=O in the assay.
inactive

Name the outcome recorded for CCN1C(=O)N(CC)C2C1NN=c1s/c(=C\c3cc4ccccc4[nH]3)c(=O)n12 (stereo not given) in the assay.
active

Name the outcome recorded for CCNCCNc1cc(C2CCCCC2)c(C#N)c2nc3ccccc3n12 in the assay.
inactive

Name the outcome recorded for N.N.NCCCCCCN.O=C([O-])CC(=O)[O-].O=C([O-])CC(=O)[O-].[Pt+4].[Pt+4] in the assay.
inactive

---

Tested on: TK-10 renal
Test Protocol: NCI tumour cell line growth inhibition, 48 h
Readout Label: GI50

Compound	Readout Label	Result
Nc1n[nH]c2ccc([C@@H]3Nc4ccc5[nH]ncc5c4[C@H]4C5C=CC(C5)[C@@H]34)cc12 (stereo partly drawn)	GI50	12 µM
OCC1OC(n2cnc3c(=S)nc[nH]c32)C(O)C1O (stereo not drawn)	GI50	4.37 µM

Switching to the query record.
Retrieve GI50 measured for CSc1ccccc1C#Cc1ccccc1C#CCCCCO and print it.
13.7 µM

---

Test system: SR leukemia
Test Protocol: NCI tumour cell line growth inhibition, 48 h
Readout Label: TGI

Guide cases for TGI, answers given:
Compound	Assayed Target	TGI
Nc1n[nH]c2ccc([C@@H]3Nc4ccc5[nH]ncc5c4[C@H]4C5C=CC(C5)[C@@H]34)cc12 (stereo partly specified)	SR leukemia	> 100 µM
O=C(O)CC1(CC(=O)O)Nc2ccccc2SC1=O	SR leukemia	> 100 µM
C=CC1C(OC2OC(CO)C(O)C(O)C2O)OC=C(C(=O)OC)C1CC=O (stereo unspecified)	SR leukemia	> 100 µM
O=C(N/N=C/c1cc([N+](=O)[O-])ccc1O)c1cccc2ccccc12	SR leukemia	16.1 µM

Retrieve TGI measured for CCN(CC)C(=S)N=Nc1c(O)[nH]c2ccccc12 and print it.
4.91 µM

Retrieve TGI measured for O=C1Nc2ccccc2/C1=C/c1c(Cl)[nH]c2ccc(O)cc12 and print it.
12 µM

Retrieve TGI measured for CC(=O)O[C@H]1CC[C@@]2(C)[C@@H](CC[C@@H]3[C@@H]2CC[C@]2(C)C=C(C=O)C[C@@H]32)C1 and print it.
9.94 µM

---

Tested on: MALME-3M melanoma
Test Protocol: NCI tumour cell line growth inhibition, 48 h
Readout Label: TGI

Retrieve TGI measured for CC#CC1C(OC(=O)c2ccccc2)CCCC1(CI)N=[N+]=[N-] (stereo not given) and print it.
> 100 µM

---

Recorded measurements of GI50, one per entry
System: SNB-19 CNS
Test Protocol: NCI tumour cell line growth inhibition, 48 h

Guide cases for GI50, answers given:
Compound	Result
CCCOc1nc(SCCC)nc2c1cnn2-c1ccccc1	> 100 µM
CCCCN(CCCC)c1ccc(C(=NC(C)CCCN(CC)CC)c2ccc(N(C)C)cc2)cc1 (stereo not drawn)	1.14 µM

Switching to the query record.
Retrieve GI50 measured for CC(C)c1ccc(Nc2nccc(-c3cnn4ncccc34)n2)cc1 and print it.
0.842 µM
